B1: Pre-mRNA-processing factor 40 homolog B, residues 274 to 332; numbered along this chain, Q6NWY9 (parent)
chain: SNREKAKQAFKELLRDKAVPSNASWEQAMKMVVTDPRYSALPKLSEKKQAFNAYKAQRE

Variants of: B1
Test: abundance fitness (aPCA) (normalised: wild type 0, dead -1); higher = more abundant; growth selection in yeast, the domain comes from the species named
Details: Homo sapiens
Label scheme, based on abundance fitness: lo (below -0.3), med (-0.3 to below -0.2), hi (-0.2 or more)

Into which bin does this variant go? "L14P"
med

Same question for "K7Y" please.
hi

Same question for "K55R" please.
hi

Same question for "A56M" please.
hi

Same question for "K7L" please.
hi

Same question for "M31H" please.
med

Same question for "L14W" please.
lo

Same question for "Q57N" please.
hi

Same question for "P20C" please.
lo

Same question for "E59C" please.
med
